assay: in vitro; settings: human, hela cells, % viability
Mark T for viability at 28.5 h, 10 µM under 90%, F if at or over.

Record excerpt, results attached:
| Compound | Class Label |
| --- | --- |
| FC(F)(F)Oc1ccc(-c2nccnc2OCC2COc3ccccc3O2)cc1 (stereo not drawn) | F |
| Cc1ccc(S(N)(=O)=O)cc1-c1nnc2c3ccccc3c(C)nn12 | F |
| Cn1ccc(C(=O)NC(Cc2ccsc2)c2ccccn2)cc1=O (stereo not drawn) | F |
| COc1ccccc1-c1ccc(CC2(C(=O)NCC3CCCCC3)CCOCC2)cc1 | F |

Note: attention shifts to another entry.
Problem: Hello, is viability at 28.5 h, 10 µM of the following compound strictly smaller than 90%? Cc1cc(Cl)ccc1OCC(=O)Nc1nnc[nH]1
Result: T
